# method.notes: probe aXIP binding to arrayed compounds – biochemical, NeuroSMM set, 635/667 nm fluorescence, primary screen (AID 1119);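 also: probe is the protein aXip251-270 applied at 1 µg/mL to compound-printed slides; binding of probe to printed compounds measured as 667 nm fluorescence plus signal to noise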
# experimental.parameters: small-molecule microarray, higher = more signal, called active from +8 up or from −8 down
Values of composite Z-score greater than or equal to 0.02 map to 1; values below map to 0.

>>> label_value("COc1ccc([Si](C)(C)[C@@H]2[C@@H](CCO)O[C@]3(C(=O)N(Cc4cccc(N(C=O)c5ccccc5)c4)c4ccccc43)[C@H]2C)cc1")
1
>>> label_value("COC(=O)[C@@]1(Cc2ccc(OC)cc2)[C@H]2c3cc(C(=O)N4CCCC4)n(CCN4CCOCC4)c3C[C@H]2CN1C(=O)c1ccccc1")
1
>>> label_value("CC(C)CNC(=O)[C@@]1(C)c2ccccc2C(=O)N(C(C)C)[C@H]1c1ccc(CO)cc1")
0
>>> label_value("COc1ccc([Si](C)(C)[C@H]2[C@H](CC(=O)N3CCC[C@H]3CO)O[C@@]3(C(=O)N(Cc4cccc(N5CCC5=O)c4)c4ccccc43)[C@@H]2C)cc1")
0
>>> label_value("C=CCNC(=O)[C@@H]1[C@H]2C(=O)O[C@H](c3ccccc3)[C@H](c3ccccc3)N2[C@H](c2ccccc2OCCO)[C@@]12C(=O)N(C(=O)OCCOC)c1ccc(C#CCC(C(=O)OC)C(=O)OC)cc12")
1
>>> label_value("C=C[C@H](C)[C@H](O)c1ccc(OCCO)cc1")
0

Reference source: PubChem BioAssay
